B1: library; a variant is named by its letters at N, in order (parent)
chain: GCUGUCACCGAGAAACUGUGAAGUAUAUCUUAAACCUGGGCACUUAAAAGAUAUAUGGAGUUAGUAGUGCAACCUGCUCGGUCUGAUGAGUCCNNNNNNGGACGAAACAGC

variants of: B1; experiment: normalized RNA/DNA level with ligand (relative to sTRSVctl = 100) (log10 (% of sTRSVctl)); HEK293T; ligand: cyclic di-GMP (c-di-GMP-II aptamer); ligand concentration (+) RNA-Seq: 1 mM; higher = less ribozyme self-cleavage, higher mRNA level; conditions: reporter: mCherry (pCS4076), ligand present: yes
endpointLabel: normalized RNA/DNA level with ligand (log10)
The answer should be a number; do not append a unit.

Reference set, count: 2
AGAUAC = 1.79
CAAGGC = 1.82

[Q] Looking for the measured normalized RNA/DNA level with ligand (log10) of `AAUGGG` , can you help?
[A] 1.57

[Q] Cool, now `GUAAAG`
[A] 1.74
